test_target: UniProt Q8TE49
Sequence (Q8TE49 whole entry, the tested form may be a part): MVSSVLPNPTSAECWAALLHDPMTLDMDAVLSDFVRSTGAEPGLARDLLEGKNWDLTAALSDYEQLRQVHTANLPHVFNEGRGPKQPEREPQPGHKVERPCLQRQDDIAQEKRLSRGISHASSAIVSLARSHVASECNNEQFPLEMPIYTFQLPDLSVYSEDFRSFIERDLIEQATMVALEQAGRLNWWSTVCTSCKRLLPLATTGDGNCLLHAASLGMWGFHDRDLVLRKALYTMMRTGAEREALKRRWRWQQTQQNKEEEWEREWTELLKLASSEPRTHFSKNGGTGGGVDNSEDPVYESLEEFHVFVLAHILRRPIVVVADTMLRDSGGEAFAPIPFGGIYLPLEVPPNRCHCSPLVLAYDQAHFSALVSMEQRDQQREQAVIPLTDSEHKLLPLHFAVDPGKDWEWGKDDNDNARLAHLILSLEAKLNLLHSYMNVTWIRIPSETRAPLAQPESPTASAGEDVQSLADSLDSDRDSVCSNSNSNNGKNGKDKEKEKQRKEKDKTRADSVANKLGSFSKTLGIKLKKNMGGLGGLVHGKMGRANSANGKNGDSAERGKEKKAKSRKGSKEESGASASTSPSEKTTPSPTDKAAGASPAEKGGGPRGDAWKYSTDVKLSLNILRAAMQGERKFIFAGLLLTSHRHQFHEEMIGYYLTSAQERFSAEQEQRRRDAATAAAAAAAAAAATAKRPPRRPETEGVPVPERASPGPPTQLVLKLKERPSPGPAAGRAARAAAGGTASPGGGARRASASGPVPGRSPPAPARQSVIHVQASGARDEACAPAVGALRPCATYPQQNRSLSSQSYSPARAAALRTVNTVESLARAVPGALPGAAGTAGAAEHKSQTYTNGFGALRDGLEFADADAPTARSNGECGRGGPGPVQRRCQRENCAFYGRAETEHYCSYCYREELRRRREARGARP
method: log2 ratio of Biotin-Ahx-Ub-VS probe labelling (fragment/DMSO); higher = less target engagement (more negative = stronger competition), active = hit call of the paper (q ≤ 0.05, log2 ratio ≤ -1)
condition_label: compound concentration: 200 uM; treatment time: 3 h
measured_property: log2 ratio of Biotin-Ahx-Ub-VS probe labelling
Respond with the number and no other words.

Observe how each entry below is paired with its result.
- compound: "O=C(CCl)Nc1nc(-c2cccs2)cs1"
  numeric_readout: -0.68
- compound: "CC(O)CC1CCN(C(=O)CCl)CC1 (stereo not drawn)"
  numeric_readout: -0.714

Shift focus to the following entry.
Quick note, log2 ratio of Biotin-Ahx-Ub-VS probe labelling for O=C(CCl)NC1CCC(C(F)(F)F)CC1 (stereo not drawn) landed at -0.706

* * *

test_target: USP24 (UniProt Q9UPU5)
Sequence (Q9UPU5 whole entry, the tested form may be a part): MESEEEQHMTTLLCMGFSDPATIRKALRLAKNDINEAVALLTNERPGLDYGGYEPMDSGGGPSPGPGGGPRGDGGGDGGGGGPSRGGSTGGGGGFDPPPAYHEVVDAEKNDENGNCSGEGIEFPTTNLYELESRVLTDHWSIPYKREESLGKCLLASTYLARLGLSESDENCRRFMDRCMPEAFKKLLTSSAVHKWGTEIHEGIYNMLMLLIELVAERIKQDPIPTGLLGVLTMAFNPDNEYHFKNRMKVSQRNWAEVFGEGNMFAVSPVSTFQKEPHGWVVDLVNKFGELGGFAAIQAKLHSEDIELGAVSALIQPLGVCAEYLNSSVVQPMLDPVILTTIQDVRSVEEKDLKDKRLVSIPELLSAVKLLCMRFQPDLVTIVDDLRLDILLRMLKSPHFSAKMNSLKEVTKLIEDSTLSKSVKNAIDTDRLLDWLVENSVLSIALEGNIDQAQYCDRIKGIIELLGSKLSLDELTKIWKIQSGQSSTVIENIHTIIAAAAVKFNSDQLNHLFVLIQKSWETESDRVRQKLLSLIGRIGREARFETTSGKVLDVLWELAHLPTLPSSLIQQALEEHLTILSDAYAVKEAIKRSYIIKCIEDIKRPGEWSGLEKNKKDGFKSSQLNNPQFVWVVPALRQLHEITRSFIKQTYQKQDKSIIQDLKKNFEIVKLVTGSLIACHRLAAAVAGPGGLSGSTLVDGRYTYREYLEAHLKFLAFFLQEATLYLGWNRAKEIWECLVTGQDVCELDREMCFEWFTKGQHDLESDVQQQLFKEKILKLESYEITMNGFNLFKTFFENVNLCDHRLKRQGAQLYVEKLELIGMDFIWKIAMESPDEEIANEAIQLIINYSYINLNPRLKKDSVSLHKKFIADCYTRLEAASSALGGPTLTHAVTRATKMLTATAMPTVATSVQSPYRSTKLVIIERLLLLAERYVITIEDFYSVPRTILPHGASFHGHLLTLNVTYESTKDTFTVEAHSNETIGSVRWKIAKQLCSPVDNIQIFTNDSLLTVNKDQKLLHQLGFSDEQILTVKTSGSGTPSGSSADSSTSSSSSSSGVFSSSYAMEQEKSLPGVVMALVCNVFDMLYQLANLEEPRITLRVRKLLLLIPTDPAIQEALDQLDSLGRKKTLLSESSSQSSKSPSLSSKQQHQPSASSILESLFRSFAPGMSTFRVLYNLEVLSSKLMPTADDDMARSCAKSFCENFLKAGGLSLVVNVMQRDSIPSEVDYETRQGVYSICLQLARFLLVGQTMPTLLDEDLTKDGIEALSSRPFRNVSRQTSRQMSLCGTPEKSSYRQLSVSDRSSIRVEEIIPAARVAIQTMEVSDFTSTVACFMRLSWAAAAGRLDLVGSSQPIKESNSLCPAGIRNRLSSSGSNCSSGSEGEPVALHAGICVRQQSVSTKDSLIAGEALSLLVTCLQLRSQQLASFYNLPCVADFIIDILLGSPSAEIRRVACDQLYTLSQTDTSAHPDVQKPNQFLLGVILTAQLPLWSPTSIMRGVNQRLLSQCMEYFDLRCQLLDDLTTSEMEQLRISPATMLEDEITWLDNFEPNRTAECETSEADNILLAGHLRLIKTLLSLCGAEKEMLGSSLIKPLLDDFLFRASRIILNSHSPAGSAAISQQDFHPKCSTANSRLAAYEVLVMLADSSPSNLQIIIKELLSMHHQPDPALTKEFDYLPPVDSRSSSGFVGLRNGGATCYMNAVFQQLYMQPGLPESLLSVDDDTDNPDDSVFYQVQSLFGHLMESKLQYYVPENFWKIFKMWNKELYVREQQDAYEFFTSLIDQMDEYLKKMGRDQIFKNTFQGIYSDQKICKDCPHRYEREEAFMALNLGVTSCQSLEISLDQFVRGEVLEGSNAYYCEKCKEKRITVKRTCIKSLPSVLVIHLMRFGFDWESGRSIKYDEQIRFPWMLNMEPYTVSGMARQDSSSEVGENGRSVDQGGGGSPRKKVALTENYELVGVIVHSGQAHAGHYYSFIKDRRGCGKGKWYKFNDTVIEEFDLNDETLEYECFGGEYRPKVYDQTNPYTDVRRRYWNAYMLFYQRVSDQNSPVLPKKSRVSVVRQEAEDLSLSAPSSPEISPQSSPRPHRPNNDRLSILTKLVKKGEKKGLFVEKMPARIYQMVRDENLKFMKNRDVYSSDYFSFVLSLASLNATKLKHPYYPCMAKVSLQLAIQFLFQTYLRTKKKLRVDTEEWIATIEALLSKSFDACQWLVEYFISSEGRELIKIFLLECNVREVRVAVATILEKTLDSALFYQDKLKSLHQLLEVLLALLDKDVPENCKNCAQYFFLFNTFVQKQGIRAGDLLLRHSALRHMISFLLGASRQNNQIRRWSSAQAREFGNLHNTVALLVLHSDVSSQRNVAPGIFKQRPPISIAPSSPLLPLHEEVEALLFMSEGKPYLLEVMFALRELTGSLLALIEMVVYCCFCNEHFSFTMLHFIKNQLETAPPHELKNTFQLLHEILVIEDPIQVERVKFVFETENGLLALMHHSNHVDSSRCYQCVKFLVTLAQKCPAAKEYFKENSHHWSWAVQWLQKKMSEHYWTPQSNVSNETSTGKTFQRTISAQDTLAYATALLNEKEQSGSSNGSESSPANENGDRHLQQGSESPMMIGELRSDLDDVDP
method: log2 ratio of Biotin-Ahx-Ub-VS probe labelling (fragment/DMSO); higher = less target engagement (more negative = stronger competition), active = hit call of the paper (q ≤ 0.05, log2 ratio ≤ -1)
condition_label: compound concentration: 200 uM; treatment time: 3 h
We begin with a simple list: items and their reported log2 ratio of Biotin-Ahx-Ub-VS probe labelling.
Respond with the number and no other words.

Observe how each entry below is paired with its result.
- molecule: "O=C(CCl)N1CCC(c2nc3ccccc3o2)CC1"
  test_target: "USP24 (UniProt Q9UPU5)"
  numeric_readout: -0.503
- molecule: "O=C(CCl)NC1CCN(C(=O)C2CCCCC2)CC1"
  test_target: "USP24 (UniProt Q9UPU5)"
  numeric_readout: -0.169
- molecule: "O=C(CCl)NCCc1ccc(F)cc1"
  test_target: "USP24 (UniProt Q9UPU5)"
  numeric_readout: -0.0496
- molecule: "CCc1c[nH]c(CNC(=O)CCl)n1.Cl"
  test_target: "USP24 (UniProt Q9UPU5)"
  numeric_readout: -0.668
- molecule: "Cc1n[nH]c2c1CN(C(=O)CCl)CC2"
  test_target: "USP24 (UniProt Q9UPU5)"
  numeric_readout: -1.26

Quick note, log2 ratio of Biotin-Ahx-Ub-VS probe labelling for O=C(CCl)NC1CCC(C(F)(F)F)CC1 (configuration not stated) landed at -0.771

Quick note, log2 ratio of Biotin-Ahx-Ub-VS probe labelling for O=C(CCl)Nc1ccc(F)cc1F landed at -0.312

Quick note, log2 ratio of Biotin-Ahx-Ub-VS probe labelling for O=C(CCl)N1CC=C(c2c[nH]c3ccccc23)CC1 landed at -1.48

Quick note, log2 ratio of Biotin-Ahx-Ub-VS probe labelling for CCN(Cc1ccc(C#N)cc1F)C(=O)CCl landed at -0.741

Quick note, log2 ratio of Biotin-Ahx-Ub-VS probe labelling for Cl.Cn1ncc2c1CCCC2NC(=O)CCl (configuration not stated) landed at -0.29

Quick note, log2 ratio of Biotin-Ahx-Ub-VS probe labelling for COc1ccc(Cl)cc1NC(=O)CCl landed at -1.54

Quick note, log2 ratio of Biotin-Ahx-Ub-VS probe labelling for CC(c1ccccc1)N(C)C(=O)CCl (configuration not stated) landed at -0.45

Quick note, log2 ratio of Biotin-Ahx-Ub-VS probe labelling for CS(=O)(=O)c1ccc(NC(=O)CCl)cc1 landed at -0.247

Quick note, log2 ratio of Biotin-Ahx-Ub-VS probe labelling for CNC(=O)C1(NC(=O)CCl)CCCCC1 landed at 0.0556

Quick note, log2 ratio of Biotin-Ahx-Ub-VS probe labelling for O=C(CCl)Nc1nnc(CC(F)(F)F)o1 landed at -0.372

Quick note, log2 ratio of Biotin-Ahx-Ub-VS probe labelling for Cc1ccc(N2CCC(NC(=O)CCl)C2=O)cc1 (configuration not stated) landed at 0.141

Quick note, log2 ratio of Biotin-Ahx-Ub-VS probe labelling for O=C(CCl)N1CCc2ccccc2C(O)C1 (configuration not stated) landed at -0.483

Quick note, log2 ratio of Biotin-Ahx-Ub-VS probe labelling for Cc1ncc2c(n1)CCN(C(=O)CCl)C2 landed at -0.198

Quick note, log2 ratio of Biotin-Ahx-Ub-VS probe labelling for COc1ccc(C2CCCN2C(=O)CCl)c(OC)c1 (configuration not stated) landed at -0.807

Quick note, log2 ratio of Biotin-Ahx-Ub-VS probe labelling for CC(NC(=O)CCl)c1ccc2[nH]ncc2c1 (configuration not stated) landed at -0.886

Quick note, log2 ratio of Biotin-Ahx-Ub-VS probe labelling for CNC(=O)C1CCN(C(=O)CCl)CC1 landed at -0.198

Quick note, log2 ratio of Biotin-Ahx-Ub-VS probe labelling for CC1Cc2ccccc2N1C(=O)CCl (configuration not stated) landed at -1.61

Provenance of the data: the supplement of paper PMC11732987
